The entries below are paired with their reported inhibition.
methodDescription: inhibition of NOD2-driven NF-kB reporter – cell-based, luminescence, uHTS, HEK293 (AID 1566)
conditionInfo: HEK293 NOD2/NF-kB luciferase reporter, at 4 µM, hits give high values
Hit rate of the full screen: of about 290,000 compounds, about 1,800 (0.62%) were called active. For the sample, actives were picked, then their nearest neighbours and some compounds at random.

compound	unitText	inhibition
O=C(c1ccccc1)N1CCN(CC(O)COc2cccc3ccccc23)CC1 (stereo not drawn)	%	-10
CCOC(=O)C1CCN(C(=O)CS(=O)(=O)Cc2nc(-c3ccccc3Cl)oc2C)CC1	%	17.3
C/C(=C\c1ccccc1)CN1CCN(Cc2ccc(C)o2)C(CCO)C1 (stereo not drawn)	%	-6.3
COc1ccc(CNc2ncnc3c2[nH]c2ccccc23)cc1	%	23.3
CCCCCCCCCc1nc2sc3c(c2c(=O)n1NC(=O)c1ccc([N+](=O)[O-])cc1)CC(C)(C)OC3	%	57
O=C(COc1cccc(Cl)c1)Nc1nc(-c2ccc(S(=O)(=O)N3CCOCC3)cc2)cs1	%	-0.1
CC(=O)Nc1ccc(OS(=O)(=O)c2ccc(Cl)cc2)cc1	%	12.5
O=C(/C=C/c1cn(-c2ccccc2)nc1-c1cccnc1)N1CCCC1	%	50.2
Clc1ccc(-c2nc3n(n2)Cc2ccccc2-3)cc1	%	-152
CCN(CC)C(=O)c1ccc2c(=O)n(Cc3cccc(Br)c3)c(=S)[nH]c2c1	%	58.7
Cc1cc2ncn(C3CC(=O)N(C)C3=O)c2cc1C (stereo not drawn)	%	10.1
CCOC(=O)N1CCN(C(=O)c2ccc(Cn3c(=S)[nH]c4cc(OCC)c(OCC)cc4c3=O)cc2)CC1	%	43.9
Cc1ccc(S(=O)(=O)c2c(N)n(CCN3CCOCC3)c3nc4ccccc4nc23)cc1C	%	-39.8

====

methodDescription: inhibition of NOD2-driven NF-kB reporter – cell-based, luminescence, uHTS, HEK293 (AID 1566)
conditionInfo: HEK293 NOD2/NF-kB luciferase reporter, at 4 µM, hits give high values
Hit rate of the full screen: of about 290,000 compounds, about 1,800 (0.62%) were called active. The sample as a whole holds a higher share of actives than the screen did.
The entries below are paired with their reported inhibition.

compound	inhibition, %
COc1ccc(Cn2c(C3CC3)nc3ccc(NC(=O)c4ccco4)cc3c2=O)cc1	-43.8
Cc1c(-c2nc(-c3ccc(C(F)(F)F)cc3)no2)n(C)oc1=O	-51.2
CC(C)NC(=O)NC(=O)COC(=O)C1(C)CC1(Cl)Cl (configuration not stated)	-8.2
CNC(=S)N1CCN(c2nc(-c3ccc(Cl)cc3)cs2)CC1	11.2
O=C(O)c1ccccc1C(=O)c1ccc(Oc2ccccc2)cc1	-0.9
CCc1ccc(-c2cc(C)no2)cc1S(=O)(=O)N1CCOc2ccc(C)cc21	16.8
COc1ccc(-n2c(C)cc(/C=C3/SC(=S)N(C)C3=O)c2C)cc1	24.3
CC(C)(C)c1ccc(C(=O)OC/C(O)=C(\C#N)c2nc3ccccc3s2)cc1	30.1
CCC(=O)c1ccccc1OCCN1CCN(Cc2ccccc2)CC1	2.5
O=C(O)c1ccccc1C(=O)c1ccc(Cl)cc1	1
Cc1nc2ccccc2c2oc(C(=O)NCc3ccc4c(c3)OCO4)cc12	45.9
Cc1cc(/C=C2/C(=O)NN(c3ccccc3)C2=O)c(C)n1-c1cccc(O)c1	-42.2
COc1cc(C(=O)NCc2ccncc2)cc(OC)c1OC	10.3
COc1ccc(CCNC(=O)c2ccc3ccccc3n2)cc1OC	6.9
CCCN(CCC)CC(O)COc1ccc2c(c1)OCO2 (configuration not stated)	4.6
COc1ccc(CNC(=O)c2ccc3ccccc3n2)cc1	0.9
Cc1sc(NC(=O)c2cccc([N+](=O)[O-])c2)c(C(N)=O)c1-c1ccc(C(C)(C)C)cc1	7.8

====

methodDescription: inhibition of NOD2-driven NF-kB reporter – cell-based, luminescence, uHTS, HEK293 (AID 1566)
conditionInfo: HEK293 NOD2/NF-kB luciferase reporter, at 4 µM
The whole screen tested about 290,000 compounds, of which about 1,800 (0.62%) were called active. Rule as the data show it: active = inhibition above about 50%; inactive = the rest. This is one part of a sample in which actives are shown more often than they occur.
Outcome codes: yes (1) for active, no (0) for inactive

molecule	labelValue
Cc1cccc(C(=O)NC(=S)Nc2ccc(N3CCOCC3)cc2)c1	no (0)
CNC(=O)COC(=O)c1c2c(nc3ccccc13)CCC2	no (0)
COc1ccc(S(=O)(=O)N(CC(=O)NCc2ccccn2)Cc2ccccc2)cc1	no (0)
Cc1ccccc1CSc1nc2ccccc2c(=O)[nH]1	no (0)
COc1cccc(C2CC(=O)NC(SC)=C2C#N)c1 (stereo unspecified)	no (0)
O=c1cc(CSc2nc3ccccc3c(=O)[nH]2)c2ccc(O)cc2o1	yes (1)
CC(=O)Nc1ccc(NC(=O)CSc2nc3c([nH]c4ccccc43)c(=O)n2-c2ccccc2F)cc1	no (0)
COc1ccc(C(=O)NC(=S)Nc2ccc(N3CCOCC3)cc2)cc1Cl	no (0)
NC(=O)c1cccnc1Nc1ccccc1F	no (0)
O=C(CNc1ccc(F)cc1)N/N=C/c1c(O)ccc2ccccc12	yes (1)
Cc1ccc(S(=O)(=O)NCc2ccc(C(=O)N3CCN(c4ccccc4)CC3)cc2)cc1	no (0)
O=C(NCc1ccccc1)N1CCOCC1	no (0)
CCn1cc(CNC(=O)c2ccc3nc(Cc4ccc(OC)cc4)oc3c2)cn1	yes (1)
CCc1ccc(NC(=O)CN(C)S(=O)(=O)c2ccc3[nH]c(=O)oc3c2)cc1	no (0)
CCN(CC)S(=O)(=O)c1cccc(C(=O)Nc2nnc(C)s2)c1	no (0)
CC(C)CNC(=O)COC(=O)c1c2c(nc3ccccc13)CCC2	no (0)
COC(=O)COc1ccc(S(=O)(=O)Nc2cc([N+](=O)[O-])ccc2C)cc1	no (0)
COc1ccc(N2CCN(C(=O)Cn3c(=O)[nH]c4ccsc4c3=O)CC2)cc1	no (0)
CCC/C(=N\NC(=O)CNC(=O)/C=C/c1ccco1)c1ccccc1	no (0)
COc1cc2c(cc1OC)C(COc1ccc(F)cc1)N(C(C)=O)CC2 (stereo unspecified)	no (0)
Cc1sc2ncnc(N3CCN(Cc4ccccc4)CC3)c2c1-c1ccccc1	no (0)
CC(C)NC(=O)NC(=O)COC(=O)c1c2c(nc3ccccc13)CCC2	yes (1)
CC(CC(=O)Nc1nncs1)c1ccccc1 (stereo unspecified)	no (0)
COC(=O)Cc1[nH]n(-c2nc3ccccc3s2)c(=O)c1C(C)=Nc1ccc(Cl)cc1	no (0)
Cc1ccc(C(=O)O/N=C(\N)c2ccccn2)cc1	no (0)
COc1ccc(-c2cc(-c3ccc(Cl)cc3)c(C#N)c(SCC(=O)O)n2)cc1	yes (1)
COc1cccc(/C=N/NC(=O)c2nnn(-c3nonc3N)c2C(C)C)c1	no (0)
CCOC(=O)N1CCC(NC(=O)c2ccc3c(c2)N(C)CCS3)CC1	no (0)
O=c1[nH]c(SCc2ccccc2F)nc2ccccc12	no (0)
Nc1c(-c2n[nH]c(=S)n2-c2ccc(Cl)cc2Cl)cnn1-c1ccccc1	no (0)
Cc1occc1-c1nnc(SCC(=O)O)n1-c1ccccc1	no (0)

====

The entries below are paired with their reported inhibition.
methodDescription: inhibition of NOD2-driven NF-kB reporter – cell-based, luminescence, uHTS, HEK293 (AID 1566)
conditionInfo: HEK293 NOD2/NF-kB luciferase reporter, at 4 µM, hits give high values
Out of some 290,000 compounds screened, about 1,800 (0.62%) were called active. Shown is part of a subset that was picked to be rich in actives.
parameterMeasured: inhibition (%)

compound	measurement
c1cc2c(cc1C1=NNC(=NC3CC3)SC1)OCCO2	85.7
Cc1nn(C(=O)CCCn2cc([N+](=O)[O-])cn2)c(C)c1Cl	16.7
Cc1ccc(CN(CC(=O)NCCc2ccccc2)C(=O)CCCC(=O)Nc2cc(C)on2)cc1	-8.6
CCCN1C(=O)/C(=C/c2ccc(C)o2)SC1=Nc1ccc(OCC)cc1	1.9
O=C(Nc1ccccc1)C1COc2ccccc2O1 (configuration not stated)	-18.8
Cc1ccc(-n2c(-c3ccccc3)c[n+]3c2CCc2ccccc2-3)c(C)c1	56.2
CCn1c(=O)c(C(=O)Nc2cnccn2)c(O)c2ccccc21	18.7

====

methodDescription: inhibition of NOD2-driven NF-kB reporter – cell-based, luminescence, uHTS, HEK293 (AID 1566)
conditionInfo: HEK293 NOD2/NF-kB luciferase reporter, at 4 µM, hits give high values
About 1,800 (0.62%) of roughly 290,000 compounds were called active. Shown is part of a subset that was picked to be rich in actives.
parameterMeasured: inhibition (%)

molecule	unitText	measurement
COc1ccc(O)c(-c2[nH]ncc2C(=O)c2cccc(C)c2)c1	%	9.9
Cc1cc(C(=O)COC(=O)C2CC2)c(C)n1-c1ccc(F)cc1	%	60.3
COc1ccc(O)c(-c2[nH]ncc2C(=O)c2ccccc2C)c1	%	5.8
COc1ccccc1COc1ccc2c(C)c(CC(=O)O)c(=O)oc2c1C	%	10.3
CC(C)[C@H](NC(=O)OC(C)(C)C)C(=O)N/N=C/c1cccc2nccnc12	%	10.5
Cc1ccc(C(C#N)c2ccc3c(C(F)(F)F)cc(C(F)(F)F)nc3n2)cc1 (centres undefined)	%	19.1
COc1cc(C(O)P(=O)(OC2CCCCC2)c2ccc(N(C)C)cc2)cc(OC)c1OC (centres undefined)	%	0.5
Cc1ccc(CC(=O)Nc2ccc(C(=O)N3CCCCC3)cc2)cc1	%	0.3
COc1cc2ccccc2cc1C(=O)Nc1ccc(NC(=O)c2cccs2)cc1	%	60.7
CN(C)/N=C/C=C1\CC/C(=C\c2ccc(Br)cc2)C1=O	%	-21.2
O=C(CSc1nc(-c2ccco2)cc(C(F)(F)F)n1)N1CCSCC1	%	13.4
COC(=O)C1=C(C)N(CCc2ccc(OC)cc2)C(=O)C1	%	-0.9
CCOC(=O)c1sc2nc(C)nc(NCc3ccc(Cl)cc3)c2c1C	%	51.3
CSc1nc(N)c2c(C)c(C)sc2n1	%	-1.2
CCCCNC(=O)c1cn(CC)c2ccc(S(=O)(=O)N3CCCCCC3)cc2c1=O	%	-6.4
CCN(CC)c1nc2c(c(=O)[nH]c(=O)n2C)n1Cc1ccccc1Cl	%	5.7
COc1cc(-c2nc(-c3ccccn3)no2)cc(OC)c1OC	%	-18.2
CCCCn1c(N)c(N(CC(C)C)C(=O)c2cccc(S(=O)(=O)N3CCCCCC3)c2)c(=O)[nH]c1=O	%	0.1
CCOC(=O)c1sc2cccc(Cl)c2c1N	%	10.6
Cc1nc2nc(SCc3ccc([N+](=O)[O-])cc3)[nH]c2cc1Br	%	-1
O=C(Nc1ccc(Cl)cc1C(F)(F)F)c1ccccc1Cl	%	3.5
CCc1c(C)nc2c(C)cccc2c1SCCC#N	%	12.6
O=C(OCCN=C1NS(=O)(=O)c2ccccc21)c1ccncc1	%	-0.9
COc1ccc(NC(=O)c2cc3ccccc3cc2OC)cc1	%	-18.7
COc1ccc(-c2nc(-c3ccccn3)no2)cc1	%	84
Cc1c(CCC(=O)O)c(=O)oc2c(C)c(OCc3cc4c(cc3Cl)OCO4)ccc12	%	35
N#Cc1c(NCCN)nc(-c2ccccc2)c2c1CCCC2	%	10.4
Cc1cc(C(=O)COC(=O)c2ccc[nH]c2=O)c(C)n1-c1ccc(F)cc1	%	-12.8
O=C(Oc1ccccc1C(=O)Nc1ccccc1)c1ccc(Br)c([N+](=O)[O-])c1	%	-12.7
